Overview of recorded signal change in competition ELISA (% reduction in OD) for various binders
measured.target: pre-existing anti-scFv903 antibodies in human serum H49 (human)
method.description: competition ADA bridging ELISA
Answer with a number only, understood to be in %.

Guide cases for signal change in competition ELISA (% reduction in OD), answers given:
scFv 903 (scFv) scFv: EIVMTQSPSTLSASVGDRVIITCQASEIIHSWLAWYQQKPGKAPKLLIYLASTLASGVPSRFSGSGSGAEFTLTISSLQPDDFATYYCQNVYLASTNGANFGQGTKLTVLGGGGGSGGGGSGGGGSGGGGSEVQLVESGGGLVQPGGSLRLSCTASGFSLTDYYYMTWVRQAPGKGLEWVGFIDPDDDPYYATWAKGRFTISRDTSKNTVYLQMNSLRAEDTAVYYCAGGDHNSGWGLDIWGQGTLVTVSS    -83
scFv 961 (scFv) scFv: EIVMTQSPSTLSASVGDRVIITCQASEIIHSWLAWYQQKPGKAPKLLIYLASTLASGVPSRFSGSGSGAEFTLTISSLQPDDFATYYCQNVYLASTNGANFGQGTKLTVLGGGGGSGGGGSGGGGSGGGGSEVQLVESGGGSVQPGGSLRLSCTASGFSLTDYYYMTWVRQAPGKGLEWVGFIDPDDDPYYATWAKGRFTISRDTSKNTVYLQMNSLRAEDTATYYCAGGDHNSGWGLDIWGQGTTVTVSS    -9
scFv 791 (scFv) scFv: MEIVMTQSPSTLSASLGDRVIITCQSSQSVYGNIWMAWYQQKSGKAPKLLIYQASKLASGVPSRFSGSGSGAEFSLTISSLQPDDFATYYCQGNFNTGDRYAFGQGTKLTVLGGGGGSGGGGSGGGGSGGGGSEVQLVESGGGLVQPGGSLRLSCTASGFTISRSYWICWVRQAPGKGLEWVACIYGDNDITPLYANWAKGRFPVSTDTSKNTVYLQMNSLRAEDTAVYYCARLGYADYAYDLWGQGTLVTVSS    -81

Next item in the queue.
INPUT: Give signal change in competition ELISA (% reduction in OD) for the following binder: scFv105 (scFv) scFv: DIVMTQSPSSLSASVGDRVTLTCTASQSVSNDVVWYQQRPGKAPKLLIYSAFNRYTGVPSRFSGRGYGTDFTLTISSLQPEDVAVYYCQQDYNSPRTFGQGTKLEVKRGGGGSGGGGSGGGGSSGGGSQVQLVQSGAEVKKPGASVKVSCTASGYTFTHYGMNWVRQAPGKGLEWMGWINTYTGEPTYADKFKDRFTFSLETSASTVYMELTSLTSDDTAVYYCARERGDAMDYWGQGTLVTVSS
OUTPUT: -26
